test system: Wild type; assay: S. aureus survival, RN4220 and DeltatarO strains – OD600, teichoic acid synthesis inhibitors, primary screen (AID 463173); conditions: S. aureus RN4220 wild type/DeltatarO growth, OD600, 18 h, active compounds read low, screened at 18.75 µg/mL (by protocol)
About 1,700 (3.3%) of roughly 52,000 compounds were called active. The full list was thinned out, with actives kept by preference.
observation-type: survival (%)
Give the quantity in %, number only.

# count of solved cases: 4
# smiles-notation, unit-label, test-result
measured = [
    ("O=C(Nc1ccc(Cl)cc1)C1CCN(S(=O)(=O)c2ccc(Br)s2)CC1", "%", 60),
    ("COCCNC(=O)Nc1ccc2c(c1)nc(C)n2C", "%", 87),
    ("Cc1cc(N2CCN(c3cccc(C(F)(F)F)c3)CC2)n2nc(-c3ccccc3)nc2n1", "%", 87),
    ("Cc1cc(N2CCN(c3cccc(C(F)(F)F)c3)CC2)n2nc(-c3ccccc3C)nc2n1", "%", 11),
]

Then there is this compound:
Ask | Requested field: survival. Item: "COc1ccc(-c2nc3nc(C)cc(N4CCN(c5cccc(C(F)(F)F)c5)CC4)n3n2)cc1"
Reply | 88

###

Measured survival, listed per entry for reference.
system: Wild type; assay: S. aureus survival, RN4220 and DeltatarO strains – OD600, teichoic acid synthesis inhibitors, primary screen (AID 463173); details: S. aureus RN4220 wild type/DeltatarO growth, OD600, 18 h, active compounds read low, screened at 18.75 µg/mL (by protocol)
Hit rate of the full screen: of about 52,000 compounds, about 1,700 (3.3%) were called active. This excerpt belongs to a sample that is enriched for actives.
Respond numerically; units are % and should not be typed.

Examples with answers:
# molecule, survival, %
rows = [
    ("COc1ccc(OC)c(NC(=O)c2nc(SCc3ccc(F)cc3)ncc2Cl)c1", 100),
    ("CC1=CC(C)(C)N(CC(=O)c2ccccc2)c2ccc(C)cc21", 109),
    ("CCC(Oc1ccccc1-c1nnc(-c2ccccc2)o1)C(=O)Nc1ccc(C(C)=O)cc1 (configuration not stated)", 118),
    ("CCOC(=O)c1c(C)oc2nc(C)nc(N3CCN(c4ccccc4)CC3)c12", 68),
    ("Cc1cc(C)cc(NS(=O)(=O)c2ccc3c(c2)NC(=O)C(C)S3)c1 (configuration not stated)", 12),
]

Ask | Given CCCC12CN3CC(CCC)(CN(C1)C3c1ccc(OC(C)C)cc1)C2=O (configuration not stated) , state its recorded survival.
Reply | 39

Ask | Next molecule up: CCc1ccc(NC(=O)C2CCCN(S(=O)(=O)c3ccc(F)cc3)C2)cc1 (configuration not stated)
Reply | 75

Ask | Another molecule: "CCOc1ccc(C(=O)NCCc2sc(-c3ccc(C)cc3)nc2C)cc1"
Reply | -3

Ask | Same lookup for Cc1c(Cl)cccc1NC(=O)C(CCS(C)(=O)=O)N1Cc2ccccc2C1=O (configuration not stated) , please.
Reply | 74

Ask | Do the same for "Cc1ccc(C)c(NC(=O)CCOc2ccccc2)c1" please
Reply | 94

Ask | Please answer likewise for "Cc1nn2c(-c3cccc(NC(=O)c4ccc(Cl)cc4)c3)nnc2c2ccccc12"
Reply | 113

###

# Lookup of reported survival keyed by entry
test system: Wild type; experiment: S. aureus survival, RN4220 and DeltatarO strains – OD600, teichoic acid synthesis inhibitors, primary screen (AID 463173); details: S. aureus RN4220 wild type/DeltatarO growth, OD600, 18 h, active compounds read low, screened at 18.75 µg/mL (by protocol)
The campaign covered roughly 52,000 compounds. About 1,700 (3.3%) were called active. Shown is part of a subset that was picked to be rich in actives.
Your answer should be a plain number; it is taken to be in %.

# compound, subject-of-test, test-result
measured = [
    ("Cc1cc(C)n(-c2nc3ccccc3nc2Nc2ccc(Cl)cc2Cl)n1", "Wild type", 86),
    ("COc1cc(OC)c(Nc2nc3ccccc3nc2-n2nc(C)cc2C)cc1Cl", "Wild type", 80),
    ("COc1ccc(OC)c(Nc2nc3ccccc3nc2-n2nc(C)cc2C)c1", "Wild type", 10),
    ("Cc1ccc2c(c1)c1c(c(=O)n(-c3ccccc3)c(=O)n1CC(=O)NCC1CCCO1)n2C (stereo not given)", "Wild type", 72),
]

Now take the following compound into account.
Ask | // returns reported survival for input "Cc1cc(C)n(-c2nc3ccccc3nc2Nc2ccc(Cl)c(Cl)c2)n1"
Reply | 1

###

tested on: Wild type; assay: S. aureus survival, RN4220 and DeltatarO strains – OD600, teichoic acid synthesis inhibitors, primary screen (AID 463173); conditions: S. aureus RN4220 wild type/DeltatarO growth, OD600, 18 h, active compounds read low, screened at 18.75 µg/mL (by protocol)
Among all 52,000 compounds or so, about 1,700 (3.3%) were called active. Many of the other results were omitted from the sample, so actives are more common in it than they were.
survival by entry:
State just the number; it will be interpreted in %.

Past entries and their recorded results:
# compound, observation-type, test-result
data = [
    ("O=C(CS(=O)(=O)c1cccc2nsnc12)N1CCN(c2ccc(F)cc2)CC1", "survival", 97),
    ("O=C(CC1N=C2c3ccccc3N=C(SCC(=O)Nc3ccc(F)cc3)N2C1=O)NCc1ccc2c(c1)OCO2 (stereo not given)", "survival", 80),
]

Ask | Tell me the measured survival of O=C(CC(c1cccs1)N1Cc2ccccc2C1=O)Nc1ccc(F)cc1 (stereo not given) , please.
Reply | 91

Ask | Then what about the compound "Nc1ccc2nc(CCc3ccccc3)[nH]c2c1" ?
Reply | 106

Ask | Follow-up item: "N#Cc1c(NC(=O)c2ccco2)sc2c1CCCC2"
Reply | 104

Ask | Request: "CCOC(=O)c1c(S(=O)(=O)N2CCC(C(=O)Nc3ccc(C)cn3)CC2)c(C)n(C)c1C"
Reply | 70

Ask | Also "O=C(NCc1ccccc1)N(Cc1cccnc1)Cc1cc2cc3c(cc2[nH]c1=O)OCCO3" , if possible.
Reply | 102

###

system: Wild type; experiment: S. aureus survival, RN4220 and DeltatarO strains – OD600, teichoic acid synthesis inhibitors, primary screen (AID 463173); settings: S. aureus RN4220 wild type/DeltatarO growth, OD600, 18 h, active compounds read low, screened at 18.75 µg/mL (by protocol)
Among all 52,000 compounds or so, about 1,700 (3.3%) were called active. This is one part of a sample in which actives are shown more often than they occur.
Quick list: survival per entry.
Give a bare numeral; the unit % is implied.

Study these solved cases before continuing.
# compound, survival, %
rows = [
    ("CC1CCc2c(sc3ncnc(NCCOCCO)c23)C1 (stereo not given)", 106),
    ("Cc1ccc(-c2nc(NC(=O)CSc3ncnc4sc5c(c34)CCC(C)C5)ns2)cc1 (stereo not given)", 75),
]

Ask | Which measured survival value corresponds to "CCc1cccc(NC(=O)CN(C)S(=O)(=O)c2ccc3c(c2)CCCN3C(C)=O)c1" ?
Reply | 83

Ask | Input "Cc1ccc(CNC(=O)c2cc(Sc3ccc(F)cc3F)nc3ccccc23)cc1"
Reply | 94

Ask | Moving on to the next compound: CCCOC(=O)CSc1ncnc2sc3c(c12)CCC(C)C3 (stereo not given)
Reply | 7

Ask | Next up: CCCCOC(=O)CSc1ncnc2sc3c(c12)CCC(C)C3 (stereo not given)
Reply | 15

Ask | Also CC(=O)c1ccc(S(=O)(=O)N2CCn3cccc3C2c2ccc(F)c(F)c2)cc1 (stereo not given) , if possible.
Reply | 68

Ask | Next up: CCCCCOC(=O)CSc1ncnc2sc3c(c12)CCC(C)C3 (stereo not given)
Reply | -1

Ask | Again, but for Cn1c(=O)oc2cc(S(=O)(=O)N3CCCC(C(=O)NCCc4ccc(Cl)cc4)C3)ccc21 (stereo not given)
Reply | 90

Ask | Can you handle Cc1ccc(C)c(NC(=O)Cn2c(=O)n(CC3CCCO3)c(=O)c3ccccc32)c1 (stereo not given) next?
Reply | 119

###

tested on: Wild type; test: S. aureus survival, RN4220 and DeltatarO strains – OD600, teichoic acid synthesis inhibitors, primary screen (AID 463173); conditions: S. aureus RN4220 wild type/DeltatarO growth, OD600, 18 h, active compounds read low, screened at 18.75 µg/mL (by protocol)
Hit rate of the full screen: of about 52,000 compounds, about 1,700 (3.3%) were called active. Shown is part of a subset that was picked to be rich in actives.
observation-type: survival (%)
Please state the figure in %; there is no need to write the unit.

Example molecules with recorded survival:
# molecule, observation-type, test-result
measured = [
    ("CCOc1ccccc1NC(=O)N1CCC(N2CCN(Cc3ccccc3)C(=O)C2=O)CC1", "survival", 68),
    ("NC(=O)C1CCN(C(=O)c2ccc3c(c2)N(Cc2cccc(Cl)c2)C(=O)c2ccccc2S3(=O)=O)CC1", "survival", 69),
    ("Cc1nn(C)c2c1c(-c1ccccc1)cc(=O)n2CC(=O)NC(C)C", "survival", 70),
]

Ask | What does the record list as survival for "COC(=O)c1c(SC)nc2ccccc2c1OCc1ccc(C)cc1" ?
Reply | 75

Ask | Now try Cc1ccc(-n2nc(C(=O)N3CCCCC3C)c(=O)n(C)c2=O)cc1 (stereo not given) .
Reply | 80
